Data origin, for the record: patent US5955576A

tested_system: factor Xa (Homo sapiens, UniProt P00742)
Sequence (P00742 235-488 limits assumed): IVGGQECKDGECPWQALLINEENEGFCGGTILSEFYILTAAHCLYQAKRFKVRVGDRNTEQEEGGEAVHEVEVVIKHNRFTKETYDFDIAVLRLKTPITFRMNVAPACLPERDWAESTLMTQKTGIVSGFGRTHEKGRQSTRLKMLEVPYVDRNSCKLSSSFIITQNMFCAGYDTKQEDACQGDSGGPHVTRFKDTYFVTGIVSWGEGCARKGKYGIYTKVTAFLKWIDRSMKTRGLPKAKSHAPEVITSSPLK
Sequence (P00742 41-179 partner limits assumed): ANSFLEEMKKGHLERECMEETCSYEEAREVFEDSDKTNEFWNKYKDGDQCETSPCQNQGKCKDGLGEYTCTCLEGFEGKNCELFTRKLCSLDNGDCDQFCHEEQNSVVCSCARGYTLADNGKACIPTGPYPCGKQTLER
pIC50: −log10 of the molar value. Peptide text beside a SMILES is read from it. * marks the point of attachment. Tos = Cc1ccc(S(=O)(=O)*)cc1
recorded_metric: pIC50

- molecule: "COC(=O)C[C@H](NS(=O)(=O)c1ccc(C)cc1)C(=O)N1CCC[C@H]1C(=O)N[C@H](C=O)CCCNC(=N)N [(4-MePh)SO2 -Asp(OCH3)-Pro-Arg-al] (Tos-Asp(OMe)-Pro-Arg-aldehyde)"
  tested_system: "factor Xa (Homo sapiens, UniProt P00742)"
  recorded_value: 8.02
- molecule: "COC(=O)C[C@H](NS(=O)(=O)c1ccc2ccccc2c1)C(=O)N1CCC[C@H]1C(=O)N[C@H](C=O)CCCNC(=N)N"
  tested_system: "factor Xa (Homo sapiens, UniProt P00742)"
  recorded_value: 8.37
- molecule: "CCCCS(=O)(=O)N[C@@H](CC(=O)OC)C(=O)N1CCC[C@H]1C(=O)N[C@H](C=O)CCCNC(=N)N"
  tested_system: "factor Xa (Homo sapiens, UniProt P00742)"
  recorded_value: 7.82
- molecule: "N=C(N)NCCC[C@@H](C=O)NC(=O)[C@@H]1CCCN1C(=O)[C@H](CC(=O)O)NC(=O)CC1CCCCC1"
  tested_system: "factor Xa (Homo sapiens, UniProt P00742)"
  recorded_value: 7.82
